Test system: morningglory
Test: Test B pre/postemergence morningglory
Format: in vivo, Ipomoea hederacea
Details: Preemergence, Rate 250 g/ha; scale 0 to 10 (0 no effect, 10 complete control)
PARAMETER: Plant response rating, Morningglory
# output: bare number, no unit

QUERY: What Plant response rating, Morningglory appears in the records for this molecule with morningglory? COCCn1c(=O)on(C(=O)N(c2ccc(F)cc2F)C(C)C)c1=O
RESULT: 5

QUERY: Next: CC(C)N(C(=O)n1oc(=O)n(CC2CCCCO2)c1=O)c1ccccc1 (stereo not shown)
RESULT: 0

QUERY: Next: C=C(Cc1ccccc1)Cn1c(=O)on(C(=O)N(c2ccccc2)C(C)C)c1=O
RESULT: 1

QUERY: Next: CC(C)N(C(=O)n1oc(=O)n(CCC2=NOCCC2)c1=O)c1ccc(F)cc1
RESULT: 0
